Target: human Oxytocin Receptor (hOTR) (Homo sapiens (Human), UniProt P30559)
Sequence (P30559 whole entry): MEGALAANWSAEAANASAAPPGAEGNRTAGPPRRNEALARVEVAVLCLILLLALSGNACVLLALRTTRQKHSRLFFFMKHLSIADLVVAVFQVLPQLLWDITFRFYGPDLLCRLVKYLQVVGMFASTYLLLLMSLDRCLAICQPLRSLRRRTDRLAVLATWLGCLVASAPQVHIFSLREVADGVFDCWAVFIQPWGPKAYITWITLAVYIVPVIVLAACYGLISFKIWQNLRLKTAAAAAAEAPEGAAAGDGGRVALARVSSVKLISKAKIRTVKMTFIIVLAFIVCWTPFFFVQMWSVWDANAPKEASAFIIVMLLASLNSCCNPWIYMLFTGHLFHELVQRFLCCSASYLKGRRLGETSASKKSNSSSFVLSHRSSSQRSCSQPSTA
Assay: Oxytocin receptor antagonist assay (oxytocin-evoked calcium, FLIPR, CHEM-1-hOTR cells)
Format: cell-based
Settings: read-out: OT IC50
pIC50: −log10 of the molar value.
Would you kindly list pIC50 for each of these compounds?

So what pIC50 did `CC(C)N1Cc2cc(Cl)ccc2-n2c(nnc2C2CC3(C2)CN(c2ccc(F)cn2)C3)C1` get with human Oxytocin Receptor (hOTR) (Homo sapiens (Human), UniProt P30559)?
< 6.00

Entry to check: COC(=O)N1Cc2cc(Cl)ccc2-n2c(C3CC4(C3)CN(c3ncccc3F)C4)nnc2C1C (stereo not shown)
6.00 to 6.30

Entry to check: `CCN1Cc2cc(Cl)ccc2-n2c(nnc2C2CC3(C2)CN(c2ccccn2)C3)C1`
< 6.00

Entry to check: `O=C(C(F)F)N1Cc2cc(Cl)ccc2-n2c(nnc2C2CC3(C2)CN(c2ccc(F)cn2)C3)C1`
< 6.00

Entry to check: `CCC(=O)N1Cc2cc(Cl)ccc2-n2c(nnc2C2CC3(C2)CN(c2cccc(C#N)n2)C3)C1`
< 6.00

Entry to check: CC(C)OC(=O)N1Cc2cc(Cl)ccc2-n2c(C3CC4(C3)CN(c3ncccn3)C4)nnc2C1C (single isomer, unassigned) [Cpd 167A]
6.00 to 6.30

Entry to check: CC1c2nnc(C3CC4(C3)CN(c3ncccn3)C4)n2-c2ccc(Cl)cc2CN1C(=O)OC1(C)CC1 (single isomer, unassigned) [Cpd 205B]
< 6.00

###

Would you kindly list IC50 for each of these compounds?
Molecular target: human Arginine Vasopressin Receptor 1a (AVPR1a) (Homo sapiens (Human))
Sequence (P37288 whole entry): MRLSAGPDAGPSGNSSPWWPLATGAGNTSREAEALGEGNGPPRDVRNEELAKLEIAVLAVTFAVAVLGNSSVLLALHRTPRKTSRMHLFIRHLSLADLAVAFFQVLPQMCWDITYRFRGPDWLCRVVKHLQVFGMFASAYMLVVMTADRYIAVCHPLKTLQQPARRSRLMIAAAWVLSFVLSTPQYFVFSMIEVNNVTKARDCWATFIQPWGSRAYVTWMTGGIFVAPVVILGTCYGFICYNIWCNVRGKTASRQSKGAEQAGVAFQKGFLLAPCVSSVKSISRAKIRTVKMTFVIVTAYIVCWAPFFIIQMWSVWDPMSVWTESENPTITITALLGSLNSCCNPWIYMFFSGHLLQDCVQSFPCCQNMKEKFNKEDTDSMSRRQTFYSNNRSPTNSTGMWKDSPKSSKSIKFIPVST
Assay: Vasopressin V1A receptor antagonist assay (AVP-evoked calcium, FLIPR, CHO-AVPR1a cells)
Format: cell-based
Conditions: read-out: V1a IC50

Look at this compound and give its reported IC50. CN1Cc2cc(Cl)ccc2-n2c(nnc2C2CC3(C2)CN(c2noc4ccccc24)C3)C1 [compound 256]
< 100 nM

Entry to check: Cc1cc(C)nc(N2CC3(CC(c4nnc5n4-c4ccc(Cl)cc4CN(C4CC4)C5)C3)C2)c1 [compound 275]
< 100 nM

Entry to check: COC(=O)N1Cc2cc(Cl)ccc2-n2c(C3CC4(C3)CN(c3cnccn3)C4)nnc2C1C (single isomer, unassigned) [Cpd 165B]
500 to 1000 nM

Entry to check: Clc1ccc2c(c1)CN(C1CCC1)Cc1nnc(C3CC4(C3)CN(c3cnccn3)C4)n1-2 [compound 40]
< 100 nM

Entry to check: CN1Cc2cc(Cl)ccc2-n2c(nnc2C2CC3(C2)CN(C(=O)C2CCOCC2)C3)C1 [compound 27]
> 1000 nM

Entry to check: CC1c2nnc(C3CC4(C3)CN(c3ccc(F)cn3)C4)n2-c2ccc(Cl)cc2CN1C(=O)C(C)(C)F (stereo not shown) [compound 178]
< 100 nM

Entry to check: CC1c2nnc(C3CC4(C3)CN(c3ccc(F)cn3)C4)n2-c2ccc(Cl)cc2CN1C(=O)C(C)(C)F (single isomer, unassigned) [Cpd 178A]
< 100 nM

###

Target: human Arginine Vasopressin Receptor V2 (AVPR2) (Homo sapiens (Human), UniProt P30518)
Sequence (P30518 whole entry): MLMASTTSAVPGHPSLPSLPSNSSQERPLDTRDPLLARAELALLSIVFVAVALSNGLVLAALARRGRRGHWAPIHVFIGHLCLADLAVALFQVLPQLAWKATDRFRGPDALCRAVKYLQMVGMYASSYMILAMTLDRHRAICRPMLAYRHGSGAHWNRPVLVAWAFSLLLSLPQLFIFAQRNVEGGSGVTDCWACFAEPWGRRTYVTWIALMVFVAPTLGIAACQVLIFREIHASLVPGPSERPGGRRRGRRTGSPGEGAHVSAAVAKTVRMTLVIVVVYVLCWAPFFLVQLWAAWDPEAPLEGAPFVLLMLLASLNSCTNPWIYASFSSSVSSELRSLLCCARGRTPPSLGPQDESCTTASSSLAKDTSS
Experiment: Vasopressin V2 receptor antagonist assay (cAMP TR-FRET, 1321N1 cells)
Assay type: cell-based
pIC50: −log10 of the molar value.
reported_metric: pIC50

Look at this compound and give its reported pIC50. CCN1Cc2cc(Cl)ccc2-n2c(nnc2C2CC3(C2)CN(c2cnccn2)C3)C1 [compound 46]
< 6.00

Entry to check: CC(=O)N1Cc2cc(Cl)ccc2-n2c(nnc2C2CC3(C2)CN(c2ccc(F)cn2)C3)C1 [compound 64]
6.30 to 7.00

Entry to check: CC1c2nnc(C3CC4(C3)CN(c3ncc(F)cn3)C4)n2-c2ccc(Cl)cc2CN1C(=O)OC1(C)CC1 (stereo not drawn) [compound 173]
< 6.00

Entry to check: O=C(N1Cc2cc(Cl)ccc2-n2c(nnc2C2CC3(C2)CN(c2cnccn2)C3)C1)C1(F)CC1 [compound 81]
< 6.00

Entry to check: COC(=O)N1Cc2cc(Cl)ccc2-n2c(C3CC4(C3)CN(c3ncccn3)C4)nnc2C1C (stereo not drawn) [compound 166]
< 6.00

Entry to check: O=C(C1CC1)N1CC2(CC(c3nnc4n3-c3ccc(Cl)cc3CN(C(=O)C3(F)CC3)C4)C2)C1 [compound 136]
< 6.00

Entry to check: CC1(N2Cc3cc(Cl)ccc3-n3c(nnc3C3CC4(C3)CN(c3ccc(F)cn3)C4)C2)CC1 [Compound No. 255]
6.30 to 7.00

Entry to check: Fc1ccc(N2CC3(CC(c4nnc5n4-c4ccc(Cl)cc4CN(C4CC4)C5)C3)C2)nc1 [compound 223]
> 7.00

Entry to check: CN1Cc2cc(Cl)ccc2-n2c(nnc2C2CC3(C2)CN(C(=O)C2CC2)C3)C1 [compound 28]
< 6.00

Entry to check: CC1c2nnc(C3CC4(C3)CN(c3ncc(F)cn3)C4)n2-c2ccc(Cl)cc2CN1C(=O)OC(CF)CF (stereo not drawn) [compound 194]
< 6.00

Entry to check: CC(C)OC(=O)N1Cc2cc(Cl)ccc2-n2c(C3CC4(C3)CN(c3cnccn3)C4)nnc2C1C (stereo not drawn) [compound 164]
< 6.00

Entry to check: O=C(N1Cc2cc(Cl)ccc2-c2c(C3CC4(C3)CN(c3cccnn3)C4)noc2C1)C(F)(F)F [compound 105]
< 6.00

Entry to check: FC(F)CN1Cc2cc(Cl)ccc2-n2c(nnc2C2CC3(C2)CN(c2ccccn2)C3)C1 [compound 52]
6.30 to 7.00

Entry to check: CC1c2nnc(C3CC4(C3)CN(c3ncccn3)C4)n2-c2ccc(Cl)cc2CN1C(=O)OC1CC1 (single isomer, unassigned) [Cpd 171A]
< 6.00

Entry to check: Clc1ccc2c(c1)CN(C1CC1)Cc1nnc(C3CC4(C3)CN(c3ccccn3)C4)n1-2 [compound 56]
6.30 to 7.00

###

Biological target: UniProt:P30518
Assay: Vasopressin V2 receptor antagonist assay (cAMP TR-FRET, 1321N1 cells)
pIC50: −log10 of the molar value.
reported_metric: pIC50

So what pIC50 did CCOC(=O)N1Cc2cc(Cl)ccc2-n2c(C3CC4(C3)CN(c3ccc(F)cn3)C4)nnc2C1C (single isomer, unassigned) [Cpd 169A] get with UniProt:P30518?
< 6.00

Entry to check: CC(C)OC(=O)N1Cc2cc(Cl)ccc2-n2c(C3CC4(C3)CN(c3ncccn3)C4)nnc2C1C (stereo not shown) [compound 167]
< 6.00

Entry to check: CC1c2nnc(C3CC4(C3)CN(c3ccc(F)cn3)C4)n2-c2ccc(Cl)cc2CN1C(=O)C(C)(C)F (single isomer, unassigned) [Cpd 178A]
6.30 to 7.00

Entry to check: CCN1Cc2cc(Cl)ccc2-n2c(nnc2C2CC3(C2)CN(c2ccc(F)cn2)C3)C1 [compound 49]
6.30 to 7.00

###

Test system: MDR1-MDCK cells
Experiment: MDR1-MDCK effective efflux assay (Transwell, 10 μM, 1 hour), MDR1-MDCK cells
Format: in vitro ADME
Details: MDCK-MDR1
reported_metric: MDR1 EER

Some molecules with recorded MDR1 EER:
COC(=O)N1Cc2cc(Cl)ccc2-n2c(nnc2C2CC3(C2)CN(C(=O)C2CC2)C3)C1 [compound 162] = +
CN1Cc2cc(Cl)ccc2-n2c(nnc2C2CC3(C2)CN(c2ccc(F)cn2)C3)C1 [compound 1] = +
CC1c2nnc(C3CC4(C3)CN(c3ccc(F)cn3)C4)n2-c2ccc(Cl)cc2CN1C(=O)OC1CCC1 (stereo not drawn) [compound 195] = ++++
COC(=O)N1Cc2cc(Cl)ccc2-n2c(nnc2C2CC3(C2)CN(c2cccc(C)n2)C3)C1 [compound 115] = +
CC1c2nnc(C3CC4(C3)CN(c3ncccn3)C4)n2-c2ccc(Cl)cc2CN1C(=O)OC1CC1 (stereo not drawn) [compound 171] = +

Look at this molecule and give its reported MDR1 EER. O=C(C1CC1)N1CC2(CC(c3nnc4n3-c3ccc(Cl)cc3CN(C(=O)C(F)(F)F)C4)C2)C1 [compound 137]
+

Entry to check: CC(C)OC(=O)N1Cc2cc(Cl)ccc2-n2c(C3CC4(C3)CN(c3ncccn3)C4)nnc2C1C (stereo not drawn) [compound 167]
+++

###

Target: UniProt P30559
Test: Oxytocin receptor antagonist assay (oxytocin-evoked calcium, FLIPR, CHEM-1-hOTR cells)
Format: cell-based
Settings: read-out: OT IC50
pIC50: −log10 of the molar value.
Would you kindly list pIC50 for each of these compounds?

Look at this compound and give its reported pIC50. COC(=O)N1Cc2cc(Cl)ccc2-n2c(C3CC4(C3)CN(c3ccc(F)cn3)C4)nnc2C1C (single isomer, unassigned) [Cpd 142B]
6.00 to 6.30

Entry to check: CC1c2nnc(C3CC4(C3)CN(c3ncccn3)C4)n2-c2ccc(Cl)cc2CN1C(=O)OC(CF)CF (single isomer, unassigned) [Cpd 202B]
< 6.00

Entry to check: `COCCN1Cc2cc(Cl)ccc2-n2c(nnc2C2CC3(C2)CN(c2ccccn2)C3)C1`
< 6.00

Entry to check: `O=C(N1Cc2cc(Cl)ccc2-n2c(nnc2C2CC3(C2)CN(c2cnccn2)C3)C1)C1(F)CC1`
< 6.00

Entry to check: `CCN1Cc2cc(Cl)ccc2-n2c(nnc2C2CC3(C2)CN(c2ccc(F)cn2)C3)C1`
< 6.00

Entry to check: `CCC(=O)N1Cc2cc(Cl)ccc2-n2c(nnc2C2CC3(C2)CN(c2ccc(F)cn2)C3)C1`
< 6.00

Entry to check: `O=C(N1Cc2cc(Cl)ccc2-n2c(nnc2C2CC3(C2)CN(c2ccc(F)cn2)C3)C1)C1(F)CC1`
< 6.00

Entry to check: `CCC(=O)N1Cc2cc(Cl)ccc2-n2c(nnc2C2CC3(C2)CN(c2cnccn2)C3)C1`
< 6.00

Entry to check: CC1c2nnc(C3CC4(C3)CN(c3ccc(F)cn3)C4)n2-c2ccc(Cl)cc2CN1C(=O)OC1CC(F)(F)C1 (centres unmarked)
< 6.00

Entry to check: CC1c2nnc(C3CC4(C3)CN(c3ccc(F)cn3)C4)n2-c2ccc(Cl)cc2CN1C (single isomer, unassigned) [Cpd 179A]
< 6.00

Entry to check: `CCC(=O)N1Cc2cc(Cl)ccc2-n2c(nnc2C2CC3(C2)CN(c2ncc(F)cn2)C3)C1`
< 6.00

Entry to check: CCOC(=O)N1Cc2cc(Cl)ccc2-n2c(C3CC4(C3)CN(c3ncccn3)C4)nnc2C1C (single isomer, unassigned) [Cpd 168A]
6.00 to 6.30

Entry to check: CC1c2nnc(C3CC4(C3)CN(c3ccc(F)cn3)C4)n2-c2ccc(Cl)cc2CN1C(=O)OC(CF)CF (single isomer, unassigned) [Cpd 203A]
6.30 to 7.00

Entry to check: `CC(C)N1Cc2cc(Cl)ccc2-n2c(nnc2C2CC3(C2)CN(c2cnccn2)C3)C1`
< 6.00
